assay: Cmax in dog at 5 mg/kg, po and 2 mg/kg, iv; format: ADME, organism-based, Canis lupus familiaris; conditions: in vivo
Consider the following compounds; for each one, report its Cmax.
Numbers only, in µM.

Record excerpt, results attached:
>>> data_value("CCOc1nc(NC(=O)C2(NC(=O)c3ccc4c(c3)c(C)c(-c3ccc(F)cn3)n4C3CCCCC3)CCC2)ccc1/C=C/C(=O)O")
5.9
>>> data_value("CCOc1nc(NC(=O)C(C)(C)NC(=O)c2ccc3c(C4CCCC4)c(-c4ccc(F)cn4)n(C)c3c2)ccc1/C=C/C(=O)O")
7.2

[in] I have this compound here, CCOc1nc(NC(=O)C2(NC(=O)c3ccc4c(C5CCCC5)c(-c5ccc(F)cn5)n(C)c4c3)CCC2)ccc1/C=C/C(=O)O , and I need its recorded Cmax.
[out] 8.6
